# Species on record: Cavia porcellus
# assay_name: Antihistamine activity was measured by the guinea pig ileum test.
# Assay type: functional
# protocol_conditions: Cavia porcellus, Ileum; read-out: pA2 (converted)
endpoint: Kb (nM)
Write the answer as a number in nM, unit excluded.

Look over these answered cases.
compound: CC1CCC[N+]1(C)COC(=O)C1(c2ccccc2)CC1.[Cl-] (centres undefined)
endpoint: Kb
numeric_result: 575
--
compound: CC[N+](CC)(CC)COC(=O)C(c1ccccc1)C1CCCC1 (centres undefined)
endpoint: Kb
numeric_result: 50.1
--
compound: CCC(C(=O)OC[N+](CC)(CC)CC)c1ccccc1.[Cl-] (centres undefined)
endpoint: Kb
numeric_result: 316
--
compound: CC[N+](CC)(CC)COC(=O)C(c1ccccc1)C1CCCCC1.[Cl-] (centres undefined)
endpoint: Kb
numeric_result: 2000
--
compound: CCC(C)C(=O)OC[N+]1(C)CCCC1 (centres undefined)
endpoint: Kb
numeric_result: 2510

For CC1CCC[N+]1(C)COC(=O)C(c1ccccc1)C1CCCC1 (centres undefined) the compound record lists Kb as 12.6

Just so you know, measured Kb for CCC(C(=O)OC[n+]1ccn(C)c1)c1ccccc1.[Cl-] (centres undefined) came out at 1260

Briefly, Kb measured for Cn1cc[n+](COC(=O)C(c2ccccc2)C2CCCC2)c1 (centres undefined) : 501

Summary for this compound, "Cn1cc[n+](COC(=O)C23CC4CC(CC(C4)C2)C3)c1" : Kb is 5010

----------
# assay_name: Half life period was measured at 7.4 pH from d[quant]/dt.
# Format: ADME
# protocol_conditions: pH 7.4
As shown below, each of these compounds has a reported half-life value.
Just the number please, in h, no unit attached.

compound: CCC(C(=O)OC[n+]1ccn(C)c1)c1ccccc1.[Cl-] (configuration not stated)
half-life / h: 6

Turning now to a further record.
For CCC(C(=O)OC[N+](CC)(CC)CC)c1ccccc1.[Cl-] (configuration not stated) the compound record lists half-life as 2.5

----------
# Organism: Canis familiaris
# assay_name: The hydrolytic kinetics expressed as Kobs was measured in dog plasma at 36 degree C
# Assay type: ADME, Canis lupus familiaris
endpoint: K obs (min⁻¹)
Hi! Could you send only the number? It should be in min⁻¹, unit omitted.

// K obs value for C[N+]1(COC(=O)C(c2ccccc2)C2CCCC2)CCCC1.[Cl-] (stereo unspecified) : 0.00144

----------
# Species: Sus scrofa
# assay_name: The hydrolytic kinetics expressed as Kobs was measured in […] at 37 degree C
# Type: ADME
# protocol_conditions: pig
endpoint: K obs (min⁻¹)
Please state the figure in min⁻¹; there is no need to write the unit.

The compound listed as CCC(C(=O)OC[N+](CC)(CC)CC)c1ccccc1.[Cl-] (stereo unspecified) has a reported K obs of 0.00542

----------
# Organism: Canis familiaris
# assay_name: The hydrolytic kinetics expressed as Kobs was measured in dog plasma at 37 degree C
# Format: ADME, Canis lupus familiaris
Overview of reported K obs across a group of compounds:
Field format: number, assumed min⁻¹, no unit text.

compound: C[N+]1(COC(=O)C(c2ccccc2)C2CCCC2)CCCC1.[Cl-] (stereo not drawn)
K obs / min⁻¹: 0.00168
--
compound: C[N+]1(COC(=O)Cc2ccccc2)CCOCC1.[Cl-]
K obs / min⁻¹: 1.73

Here is another compound to look at.
Kindly note the recorded K obs for CCC(C(=O)OC[N+](CC)(CC)CC)c1ccccc1.[Cl-] (stereo not drawn) , which is 0.00815

----------
# assay_name: Half life period was measured at 7.4 pH from d[acid]/dt.
# Type: ADME
# protocol_conditions: pH 7.4
Parameter: half-life. Scope: all listed entries.
Express it in h; write the number only.

compound: CC[N+](CC)(CC)COC(=O)C(c1ccccc1)C1CCCC1.[Cl-] (stereo not given)
numeric_result: 32

compound: C[N+]1(COC(=O)Cc2ccccc2)CCOCC1.[Cl-]
numeric_result: 8

compound: CC1CCC[N+]1(C)COC(=O)C1(c2ccccc2)CC1.[Cl-] (stereo not given)
numeric_result: 21

compound: CC(C(=O)OC[N+]1(C)CCCC1)(c1ccccc1)c1ccccc1.[Cl-]
numeric_result: 60

compound: C[N+]1(COC(=O)C2(c3ccccc3)CCCC2)CCCC1.[Cl-]
numeric_result: 64

The value of half-life measured for the compound CCC(C(=O)OC[n+]1ccn(C)c1)c1ccccc1.[Cl-] (stereo not given) turned out to be 5.7

half-life for CCC(C(=O)OC[N+](CC)(CC)CC)c1ccccc1.[Cl-] (stereo not given) is 2.6

half-life recorded for this compound, C[N+]1(COC(=O)C(c2ccccc2)C2CCCC2)CCCC1.[Cl-] (stereo not given) , is 20

The recorded half-life for entry "CC[N+](CC)(CC)COC(=O)C1(c2ccccc2)CC1.[Cl-]" equals 21

Data point: "C[N+]1(COC(=O)C2(c3ccccc3)CC2)CCCC1.[Cl-]" ; half-life = 17

----------
# assay_name: Half life period was measured at 37 degree C in dog plasma from d[quant]/dt.
# Format: ADME, Canis lupus familiaris
This listing pairs compounds with measured half-life.
Reply with just the number (in min).

Guide cases for half-life, answers given:
compound: C[N+]1(COC(=O)C(c2ccccc2)C2CCCC2)CCCC1.[Cl-] (stereo not drawn)
unit: min
half-life: 390

compound: CCC(C(=O)OC[N+](CC)(CC)CC)c1ccccc1.[Cl-] (stereo not drawn)
unit: min
half-life: 84

For the next question, use this compound.
Reported half-life ( "C[N+]1(COC(=O)Cc2ccccc2)CCOCC1.[Cl-]" ) = 240
